- System: NCI-H460
- test_protocol: Cytotoxic activity against human non-small lung carcinoma cell line H460
- Assay type: functional, cell-based
parameter_measured: IC50

• COc1cc(/C=C2/C(=O)Oc3ccccc32)cc(OC)c1OC = 37.7 µM
• CC(=O)Oc1ccc(/C=C2/C(=O)Oc3ccc(OC(C)=O)cc32)cc1 = > 50 µM
• O=C1Oc2ccccc2/C1=C\c1ccc(OC(=O)c2ccccc2)cc1 = > 30 µM
• O=C1Oc2ccccc2/C1=C\c1ccc(O)cc1 = 10.1 µM
• COc1cc(OC)c2c(c1)OC(=O)/C2=C/c1ccc(OC)c(O)c1 = 8.8 µM
• COc1ccc(/C=C2/C(=O)Oc3ccccc32)cc1 = > 39 µM
• COc1ccc(/C=C2/C(=O)Oc3ccccc32)cc1O = 9.3 µM
